Origin of values: patent US20110092517A1

- target under test: mouse PPARδ (Mus musculus, UniProt P35396)
- Construct: amino acids 139-440 for m; expressed in transfected cells; host or cells: CV-1
- Sequence (P35396 139-440): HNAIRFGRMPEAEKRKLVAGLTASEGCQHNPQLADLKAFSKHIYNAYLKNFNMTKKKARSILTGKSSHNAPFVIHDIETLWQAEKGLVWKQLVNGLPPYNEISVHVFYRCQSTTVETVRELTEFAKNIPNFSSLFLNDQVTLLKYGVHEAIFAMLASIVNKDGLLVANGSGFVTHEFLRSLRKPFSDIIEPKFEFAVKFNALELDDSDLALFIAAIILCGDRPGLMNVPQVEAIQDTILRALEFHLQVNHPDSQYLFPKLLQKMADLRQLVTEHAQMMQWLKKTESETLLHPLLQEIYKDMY
- method notes: GAL4-PPAR chimera transactivation assay in CV-1 cells at 10% or 0.1% serum (Example 4)
- Assay type: cell-based
- stated conditions: 0.1% serum, read-out: GAL4-chimera (mouse) EC50 (μM) hPPARδ

# entry smiles, unit descriptor, EC50
data = [
    ("Cc1cc(C(=O)CCc2sc(-c3ccc(C(F)(F)F)cc3)nc2C(C)C)ccc1OCC(=O)O", "µM", 0.065),
]

---

// reported EC50 for each item listed
- target under test: rat PPARα (Rattus norvegicus)
- Construct: expressed in transfected cells; host or cells: CV-1
- Sequence (P37230 239-466 limits assumed): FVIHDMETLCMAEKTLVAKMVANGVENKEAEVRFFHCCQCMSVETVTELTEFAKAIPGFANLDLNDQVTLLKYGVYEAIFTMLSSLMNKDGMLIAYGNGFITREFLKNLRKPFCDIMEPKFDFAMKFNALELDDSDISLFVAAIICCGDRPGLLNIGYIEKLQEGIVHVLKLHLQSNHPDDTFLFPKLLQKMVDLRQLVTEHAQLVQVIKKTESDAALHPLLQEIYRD
- method notes: GAL4-PPAR chimera transactivation assay in CV-1 cells at 10% or 0.1% serum (Example 4)
- Format: cell-based
- stated conditions: 10% serum, read-out: GAL4-chimera (rat) EC50 (μM) hPPARα

# entry smiles, EC50
measured = [
    ("Cc1cc(C(=O)CCc2sc(-c3ccc(C(F)(F)F)cc3)nc2C(C)C)ccc1OCC(=O)O", "> 10 µM"),
    ("Cc1cc(SCc2sc(-c3ccc(C(F)(F)F)cc3)nc2C)ccc1OCC(=O)O", "> 10 µM"),
]

---

// reported EC50 for each item listed
- target under test: UniProt:P37231
- Sequence (P37231 1-505): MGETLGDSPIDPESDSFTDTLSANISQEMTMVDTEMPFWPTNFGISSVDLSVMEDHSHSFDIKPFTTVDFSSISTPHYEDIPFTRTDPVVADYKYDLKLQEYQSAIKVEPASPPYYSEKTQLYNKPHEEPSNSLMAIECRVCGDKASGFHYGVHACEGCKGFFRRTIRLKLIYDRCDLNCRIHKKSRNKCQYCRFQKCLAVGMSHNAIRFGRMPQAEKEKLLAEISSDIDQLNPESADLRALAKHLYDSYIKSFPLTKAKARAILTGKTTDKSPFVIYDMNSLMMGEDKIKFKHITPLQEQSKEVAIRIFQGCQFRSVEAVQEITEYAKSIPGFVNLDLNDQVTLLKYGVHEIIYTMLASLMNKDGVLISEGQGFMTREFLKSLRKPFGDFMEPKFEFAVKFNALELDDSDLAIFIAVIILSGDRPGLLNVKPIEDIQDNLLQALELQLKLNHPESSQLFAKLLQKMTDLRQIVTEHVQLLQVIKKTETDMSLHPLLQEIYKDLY
- Sequence (P19793 1-462 partner): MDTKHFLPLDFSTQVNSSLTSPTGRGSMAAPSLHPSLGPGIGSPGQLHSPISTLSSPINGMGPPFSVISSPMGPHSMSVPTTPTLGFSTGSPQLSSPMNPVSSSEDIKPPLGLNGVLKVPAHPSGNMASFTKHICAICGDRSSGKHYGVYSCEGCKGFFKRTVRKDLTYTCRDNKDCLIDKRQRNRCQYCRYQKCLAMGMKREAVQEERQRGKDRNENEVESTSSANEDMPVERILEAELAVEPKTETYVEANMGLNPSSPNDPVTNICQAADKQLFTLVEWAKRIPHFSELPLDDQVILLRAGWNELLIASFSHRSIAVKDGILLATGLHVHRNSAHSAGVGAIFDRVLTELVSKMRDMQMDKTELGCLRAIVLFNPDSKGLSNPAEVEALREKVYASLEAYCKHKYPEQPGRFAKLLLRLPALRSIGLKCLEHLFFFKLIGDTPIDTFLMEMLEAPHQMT
- method notes: Full-length receptor transactivation assay (PPREx3-tk-luc, hRXRα) in CV-1 cells
- stated conditions: full-length hPPARγ + RXRalpha, read-out: Transactivation activity FULL-hPPAR + mRXRalpha (EC50-Um) gamma

# compound, unit descriptor, value operator, EC50
rows = [
    ("Cc1cc2c(CCc3nc(-c4ccc(Cl)cc4Cl)oc3C(C)C)noc2cc1OCC(=O)O", "µM", ">", 10),
    ("Cc1cc(C(=O)CCc2sc(-c3ccc(C(F)(F)F)cc3)nc2C(C)C)ccc1OCC(=O)O [drawing 63]", "µM", "=", 5.8),
    ("Cc1cc(C(=O)/C=C/c2sc(-c3ccc(C(F)(F)F)cc3)nc2C(C)C)ccc1OCC(=O)O", "µM", ">", 10),
    ("Cc1cc(C(=O)CCc2nc(-c3ccc(Cl)cc3O)oc2C(C)C)ccc1OCC(=O)O", "µM", "=", 9.8),
    ("Cc1cc(C(O)CCc2sc(-c3ccc(C(F)(F)F)cc3)nc2C(C)C)ccc1OCC(=O)O (centres unmarked)", "µM", ">", 8),
]

---

- target under test: mouse PPARα (Mus musculus, UniProt P23204)
- Construct: amino acids 167-468 for hs and m; expressed in transfected cells; host or cells: CV-1
- Sequence (P23204 167-468): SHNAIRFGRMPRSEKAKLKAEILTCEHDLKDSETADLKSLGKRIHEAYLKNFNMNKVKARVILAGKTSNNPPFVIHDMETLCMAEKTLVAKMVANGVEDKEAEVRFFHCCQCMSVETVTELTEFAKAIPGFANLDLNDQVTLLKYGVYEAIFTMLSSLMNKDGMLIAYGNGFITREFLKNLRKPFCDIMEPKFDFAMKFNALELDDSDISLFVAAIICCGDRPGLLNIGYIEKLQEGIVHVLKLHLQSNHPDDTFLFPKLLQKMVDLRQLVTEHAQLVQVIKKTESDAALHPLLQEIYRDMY
- method notes: GAL4-PPAR chimera transactivation assay in CV-1 cells at 10% or 0.1% serum (Example 4)
- Assay type: cell-based
- stated conditions: 0.1% serum, read-out: GAL4-chimera (mouse) EC50 (μM) hPPARα
recorded endpoint: EC50

# compound, recorded endpoint, endpoint result
data = [
    ("Cc1cc(C(=O)CCc2sc(-c3ccc(C(F)(F)F)cc3)nc2C(C)C)ccc1OCC(=O)O [compound I.1]", "EC50", "> 10 µM"),
]

---

- target under test: human PPARα (Homo sapiens, UniProt Q07869)
- Construct: expressed in transfected cells; host or cells: CV-1
- Sequence (Q07869 whole entry, one chain of several): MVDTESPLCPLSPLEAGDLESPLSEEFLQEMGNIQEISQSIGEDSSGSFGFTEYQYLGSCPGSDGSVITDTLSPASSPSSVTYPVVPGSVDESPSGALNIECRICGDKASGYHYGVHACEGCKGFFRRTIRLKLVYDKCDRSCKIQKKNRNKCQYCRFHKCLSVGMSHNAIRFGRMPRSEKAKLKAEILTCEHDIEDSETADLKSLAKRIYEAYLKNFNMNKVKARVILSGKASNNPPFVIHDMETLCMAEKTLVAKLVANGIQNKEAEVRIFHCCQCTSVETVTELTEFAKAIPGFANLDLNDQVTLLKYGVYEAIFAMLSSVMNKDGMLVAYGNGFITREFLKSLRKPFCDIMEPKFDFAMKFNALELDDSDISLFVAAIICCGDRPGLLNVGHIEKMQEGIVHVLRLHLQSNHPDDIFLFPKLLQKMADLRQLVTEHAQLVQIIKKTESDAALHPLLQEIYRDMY
- method notes: Full-length receptor transactivation assay (PPREx3-tk-luc, hRXRα) in CV-1 cells
- Format: cell-based
- stated conditions: full-length hPPARα + RXRalpha, read-out: Transactivation activity FULL-hPPAR + mRXRalpha (EC50-Um) alpha
- Procedure: Receptor expression plasmids: Full-length coding sequences for human PPARα, PPARγ and PPARδ were inserted into the mammalian expression vector pcDNA3.1+ or pCMX. The full-length coding sequence for human RXRα was inserted into pcDNA3.1+. Reporter plasmid: PPREx3-tk-luc (3) was used as the reporter plasmid. […] The luciferase and βGAL activity were measured according to the methods of Umesono, K. et al. (4) with slight modifications. […]
// reported EC50 for each item listed

# molecule, target under test, value operator, EC50 / µM
rows = [
    ("Cc1cc2c(CCc3nc(-c4ccc(Cl)cc4Cl)oc3C(C)C)noc2cc1OCC(=O)O", "human PPARα (Homo sapiens, UniProt Q07869)", "=", 7.8),
    ("Cc1cc(C(O)CCc2sc(-c3ccc(C(F)(F)F)cc3)nc2C(C)C)ccc1OCC(=O)O (centres unmarked)", "human PPARα (Homo sapiens, UniProt Q07869)", ">", 8),
    ("Cc1cc(C(=O)/C=C/c2sc(-c3ccc(C(F)(F)F)cc3)nc2C(C)C)ccc1OCC(=O)O", "human PPARα (Homo sapiens, UniProt Q07869)", ">", 10),
    ("Cc1cc(C(=O)CCc2nc(-c3ccc(Cl)cc3O)oc2C(C)C)ccc1OCC(=O)O", "human PPARα (Homo sapiens, UniProt Q07869)", "=", 3.8),
    ("Cc1cc(C(=O)CCc2sc(-c3ccc(C(F)(F)F)cc3)nc2C(C)C)ccc1OCC(=O)O [drawing 63]", "human PPARα (Homo sapiens, UniProt Q07869)", "=", 3.2),
]

---

- target under test: human PPARδ (Homo sapiens, UniProt Q03181)
- Construct: PPARδ (amino acids 139-441); expressed in transfected cells; host or cells: CV-1
- Sequence (Q03181 139-441): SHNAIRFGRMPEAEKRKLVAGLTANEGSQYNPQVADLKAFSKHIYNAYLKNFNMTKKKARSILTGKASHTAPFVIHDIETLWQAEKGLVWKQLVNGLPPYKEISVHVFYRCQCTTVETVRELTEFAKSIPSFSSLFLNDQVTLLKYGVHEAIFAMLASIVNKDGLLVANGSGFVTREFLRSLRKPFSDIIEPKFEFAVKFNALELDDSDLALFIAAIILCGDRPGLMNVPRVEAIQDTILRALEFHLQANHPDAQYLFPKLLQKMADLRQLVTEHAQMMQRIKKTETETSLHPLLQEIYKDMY
- method notes: GAL4-PPAR chimera receptor transactivation assay in CV-1 cells (Example 3)
- Type: cell-based
- stated conditions: GAL4 DBD-hPPARδ LBD chimera, read-out: Transactivation activity GAL 4 DBD-hPPAR LBD (EC50-Um) delta

# molecule, EC50
rows = [
    ("Cc1cc([C@H](O)CCc2sc(-c3ccc(C(F)(F)F)cc3)nc2C(C)C)ccc1OCC(=O)O", "> 700 nM"),
    ("Cc1cc(C(=O)/C=C/c2sc(-c3ccc(C(F)(F)F)cc3)nc2C(C)C)ccc1OCC(=O)O", "45 nM"),
    ("Cc1cc2c(CCc3nc(-c4ccc(Cl)cc4Cl)oc3C(C)C)noc2cc1OCC(=O)O", "25 nM"),
    ("Cc1cc(C(O)CCc2sc(-c3ccc(C(F)(F)F)cc3)nc2C(C)C)ccc1OCC(=O)O (stereo not shown)", "> 1000 nM"),
    ("Cc1cc(C(=O)CCc2nc(-c3ccc(Cl)cc3O)oc2C(C)C)ccc1OCC(=O)O", "32 nM"),
    ("Cc1cc(C(=O)CCc2sc(-c3ccc(C(F)(F)F)cc3)nc2C(C)C)ccc1SCC(=O)O", "18 nM"),
    ("Cc1cc(C(=O)CCc2sc(-c3ccc(C(F)(F)F)cc3)nc2C(C)C)ccc1OCC(=O)O [drawing 63]", "18 nM"),
]
